# Measurement notes: Cyclic voltammetry of Fe(III) chelated by ligand
# Format: physicochemical
# Condition context: 100 mM PB pH 7.4, SCE reference, 2 mV/s; Fe(III) alone approximately −0.65 V
Measured parameter: Reduction potential of Fe(III) chelated by compound (V)

>>> numeric_result("COC(=O)/C=C/c1ccc(O)c(O)c1 [CAME, caffeic acid methyl ester]")
"−0.79"
>>> numeric_result("O=C(O)/C=C/c1ccc(O)c(O)c1 [CA, caffeic acid]")
"−0.76"
>>> numeric_result("CCOC(=O)/C=C/c1ccc(O)c(O)c1 [CAEE, caffeic acid ethyl ester]")
"−0.99"
>>> numeric_result("O=C(/C=C/c1ccc(O)c(O)c1)OCCc1ccccc1 [CAPE, Caffeic acid phenethyl ester]")
"−1.00"

---

# Measurement notes: 1-octanol/phosphate buffer partitioning, shake-flask method
# Assay type: physicochemical
# Condition context: 1-octanol / 100 mM phosphate buffer pH 7.4, shake-flask
Recorded measurements of LogKow, one per entry
Measured parameter: LogKow

>>> numeric_result("COC(=O)/C=C/c1ccc(O)c(O)c1 [CAME, caffeic acid methyl ester]")
1.27
>>> numeric_result("CCOC(=O)/C=C/c1ccc(O)c(OC)c1 [EF, ethyl ferulate]")
1.38
>>> numeric_result("CCOC(=O)/C=C/c1ccc(O)c(O)c1 [CAEE, caffeic acid ethyl ester]")
1.51
>>> numeric_result("O=C(/C=C/c1ccc(O)c(O)c1)OCCc1ccccc1 [CAPE, Caffeic acid phenethyl ester]")
2.01
